B1: PhoQ; a variant is named by its letters at X, in order, P23837 (parent)
chain: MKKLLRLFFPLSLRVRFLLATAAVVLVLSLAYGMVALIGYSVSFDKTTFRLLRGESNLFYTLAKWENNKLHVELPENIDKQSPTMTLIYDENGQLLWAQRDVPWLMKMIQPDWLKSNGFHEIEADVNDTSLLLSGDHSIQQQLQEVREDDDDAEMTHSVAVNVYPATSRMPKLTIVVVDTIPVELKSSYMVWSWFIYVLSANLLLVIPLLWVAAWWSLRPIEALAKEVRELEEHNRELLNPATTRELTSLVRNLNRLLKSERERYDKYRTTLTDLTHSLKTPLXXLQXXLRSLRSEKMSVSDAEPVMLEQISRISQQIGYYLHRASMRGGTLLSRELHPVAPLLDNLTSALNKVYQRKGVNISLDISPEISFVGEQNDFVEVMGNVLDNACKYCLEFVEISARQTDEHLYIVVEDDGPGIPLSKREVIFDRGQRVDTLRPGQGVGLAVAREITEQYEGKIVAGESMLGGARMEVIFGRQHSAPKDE

variants of: B1; experiment: enrichment ratio after two sorts for PhoP signalling (ratio (wild type AVST 3.29)); higher = more functional; conditions: with PhoP (E. coli)
Whole data set: some 140,000 sequences, median “enrichment ratio after two sorts for PhoP signalling” near 0, cut for the highest 2% near 11. For the sample, the highest values were picked, then their nearest neighbours and some sequences at random.
Answer FALSE if enrichment ratio is under 10, and TRUE if it is 10 or more.

# count of solved cases: 10
TQMY : TRUE
TAAI : FALSE
TACS : TRUE
RRNI : FALSE
FQMY : FALSE
FCNA : FALSE
TACI : TRUE
TACA : FALSE
TACE : FALSE
PTRG : FALSE

Now take the following variant into account.
Does enrichment ratio meet or surpass 10 for `NQMY` ?
FALSE
